experiment: Activation of Akt-dependent signalling pathway in rat L6 myotubes assessed as increase in myc-tagged GLUT4-mediated 2-[3H]-deoxyglucose uptake at 25 uM incubated for 16 hrs measured for 5 mins by beta scintillation counting relative to control
property_name: fold change (FC)

CC(C)=CCC[C@]1(C)C=Cc2c(c(C)cc3c2[nH]c2ccccc23)O1: 1.26
COc1ccc2[nH]c3c4c(c(C)cc3c2c1)OC(C)(C)C=C4 [KOENIMBINE]: 1.41
COc1ccc2c(c1)[nH]c1c3c(c(C)cc12)OC(C)(C)C=C3: 1.34
COc1cc2[nH]c3c4c(c(C)cc3c2cc1OC)OC(C)(C)C=C4: 1.42
